Target: T1, PDZD2_2, O15018
T1 sequence (O15018 329-429, limits assumed, looked up): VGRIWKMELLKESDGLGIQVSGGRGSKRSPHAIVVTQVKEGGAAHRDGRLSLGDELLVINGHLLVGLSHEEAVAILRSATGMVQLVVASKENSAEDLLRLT
Assay: holdup assay
Parameters: key: below the threshold = too weak to quantify, mostly under pKd 3.1 to 4
Details: plain residues with an end cap or a label only (N-terminal biotin on a linker: ahx)
metric: pKd

- binder: "SAPATLSSRA [PDLIM2, Q96JY6]"
  metric: "pKd"
  data value: "below the threshold"
- binder: "VNENQKEYFF [CNTNAP4, Q9C0A0]"
  metric: "pKd"
  data value: "below the threshold"
- binder: "PKMKLNETSF [SHKBP1, Q8TBC3]"
  metric: "pKd"
  data value: "below the threshold"

// provenance: paper PMC9482650
